Tested on: mu opiate receptor (MOR)
Experiment: MOR agonist activity using [35S]GTPγS binding assay in striatal membranes
Type: biochemical
Conditions: Series C-1; 1 μM compound, relative to DAMGO
endpoint.name: % DAMGO (1 μM) (%)
Answers are plain numbers, in %.

- compound: "O=C(c1ccc([N+](=O)[O-])cc1)N1CCC2(CC1)OCCN2S(=O)(=O)c1ccc([N+](=O)[O-])cc1 [Compound C0033]"
  tested.system: "mu opiate receptor (MOR)"
  readout.units: "%"
  % DAMGO (1 μM): 80.6
- compound: "COC(=O)c1ccc(S(=O)(=O)N2CCC3(CC2)OCCN3S(=O)(=O)c2ccc(C(=O)OC)cc2)cc1"
  tested.system: "mu opiate receptor (MOR)"
  readout.units: "%"
  % DAMGO (1 μM): 60.5
- compound: "O=S(=O)(c1ccc(Br)cc1F)N1CCC2(CC1)OCCN2S(=O)(=O)c1ccc(Br)cc1F"
  tested.system: "mu opiate receptor (MOR)"
  readout.units: "%"
  % DAMGO (1 μM): 106.4
- compound: "O=S(=O)(c1ccc(Br)c(C(F)(F)F)c1)N1CCC2(CC1)OCCN2S(=O)(=O)c1ccc(Br)c(C(F)(F)F)c1"
  tested.system: "mu opiate receptor (MOR)"
  readout.units: "%"
  % DAMGO (1 μM): 104.9
- compound: "O=S(=O)(c1ccc(C(F)(F)F)cc1)N1CCC2(CC1)OCCN2S(=O)(=O)c1ccc(C(F)(F)F)cc1"
  tested.system: "mu opiate receptor (MOR)"
  readout.units: "%"
  % DAMGO (1 μM): 86.7

Fill in % DAMGO (1 μM) for each of the 5 compounds listed.
1. N#Cc1ccc(S(=O)(=O)N2CCC3(CC2)OCCN3S(=O)(=O)c2ccc(C#N)cc2)cc1
2. O=S(=O)(c1ccc(F)c(F)c1)N1CCC2(CC1)OCCN2S(=O)(=O)c1ccc(F)c(F)c1
3. O=S(=O)(c1ccc(F)cc1)N1CCC2(CC1)OCCN2S(=O)(=O)c1ccc(F)cc1
4. O=S(=O)(c1cccs1)N1CCC2(CC1)OCCN2S(=O)(=O)c1cccs1 [Compound C0141M]
5. O=S(=O)(c1ccc(-c2ccccc2)cc1)N1CCC2(CC1)OCCN2S(=O)(=O)c1ccc(-c2ccccc2)cc1

(A)
72.9
117.9
113.1
105.8
114.9

Fill in % DAMGO (1 μM) for each of the 4 compounds listed.
1. Cc1ccccc1S(=O)(=O)N1CCC2(CC1)OCCN2S(=O)(=O)c1ccccc1C
2. CC(=O)c1ccc(S(=O)(=O)N2CCC3(CC2)NC(=O)CN3Cc2ccccc2)cc1 [Compound C0085M]
3. COc1cc(S(=O)(=O)N2CCC3(CC2)OCCN3S(=O)(=O)c2cc(OC)c(OC)c(OC)c2)cc(OC)c1OC
4. CC(=O)Nc1ccc(S(=O)(=O)N2CCC3(CC2)OCCN3S(=O)(=O)c2ccc(NC(C)=O)cc2)cc1

(A)
78.9
78.4
134.7
108.9
